B1: HEEH_KT_rd6_3546 (parent)
chain: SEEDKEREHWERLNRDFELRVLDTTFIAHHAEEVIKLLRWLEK

Variants of: B1
Experimental Protocol: folding stability dG (cDNA display proteolysis); higher = more stable
Experimental Setup: PBS, room temperature
# folding stability dG listing for each entry below
Quantity: folding stability dG (kcal/mol)

>>> readout_value("SEEDKEREHWERLNRDFELRVLDTTFIAEHAEEVIKLLRWLEK")
1.45
>>> readout_value("SEEDKEREHWERLNRDFEPRVLDTTFIAHHAEEVIKLLRWLEK")
0.862
>>> readout_value("SEEDKEREHWERLNRDFELRVLDTTFIAHHAEYVIKLLRWLEK")
2.16
>>> readout_value("SEEDKEREHWERLNRDFELRVLDTTFIAHHNEEVIKLLRWLEK")
0.698
>>> readout_value("SEEDKEREHWERLNRDFELRVLDTTFIAHHAEEVIKLLRWLLK")
2.42
>>> readout_value("SEEDKEREHWERLNRDFELRVLDTTFIAHHAEEVIKLLRWLEV")
1.56
>>> readout_value("SEEDKEREHWERLNRDFELRVLDTTFIAHHAEEVIKMLRWLEK")
1.09
>>> readout_value("SEEDKEREHWERLNRDFELRVLDTTFIAHHAEEVIKLLLWLEK")
1.59
>>> readout_value("SEEDKEREHWERLNRDFELRVLDTTFIAHHFEEVIKLLRWLEK")
1.96
>>> readout_value("SEEDKEREHWERLNRYFELRVLDTTFIAHHAEEVIKLLRWLEK")
2.13
>>> readout_value("SEEDKEREHWERLNRDFELRVLDTTFIAHHAESVIKLLRWLEK")
1.44
>>> readout_value("SEEDKEREHWERLNRDFELRVLDTTFIAHHAEEVIKLHRWLEK")
0.371
>>> readout_value("SEEDKEREHWERLNRDFELRVLDTTFIAHHAETVIKLLRWLEK")
1.47
>>> readout_value("SEEDKEREHWERLNRDFELRVLDTTFIAHHAEEVIKNLRWLEK")
0.031
>>> readout_value("SEEDKEAEHWERLNRDFELRVLDTTFIAHHAEEVIKLLRWLEK")
1.53
>>> readout_value("SEEDKEREHWERLNRDFELRVLDTTFIAHHAENVIKLLRWLEK")
1.45
>>> readout_value("SEEEKEREHWERLNRDFELRVLDTTFIAHHAEEVIKLLRWLEK")
1.56
>>> readout_value("SEEDKEREHWERLNRDFELNVLDTTFIAHHAEEVIKLLRWLEK")
1.23
>>> readout_value("SEEDKEREHWERLNRDFELRVLDTTFIAHRAEEVIKLLRWLEK")
1.07
>>> readout_value("SEEDKEREHWERLNRDFELRVLDTTFIAHHAEEVIKLLQWLEK")
0.982
>>> readout_value("SEEDKEREHWWRLNRDFELRVLDTTFIAHHAEEVIKLLRWLEK")
2.37
>>> readout_value("SEEDKEREHWERLNRDFELRVLDWTFIAHHAEEVIKLLRWLEK")
2.13
>>> readout_value("SEEDKEREHWERLNRDFELRVLDTTFIAHHAEEVISLLRWLEK")
1.23
>>> readout_value("SEEDKEREHWERLNRDFELRVLDTTFIAHHAEEVIKLLRWLPK")
0.291
>>> readout_value("SEEDKEREHWERLNRDFELRVLDTTFIAHHAEEVIDLLRWLEK")
1
>>> readout_value("SEEDKEREHWERLNRDFELRVLDTTFIAHKAEEVIKLLRWLEK")
1.13
>>> readout_value("SEEDKEREHWERLNRDFELRVLDTTFIAKHAEEVIKLLRWLEK")
1.77
>>> readout_value("SEEGKEREHWERLNRDFELRVLDTTFIAHHAEEVIKLLRWLEK")
1.28
>>> readout_value("SEEDKEREHWERLNRDFELRVLDTTFIAHHCEEVIKLLRWLEK")
2.24
>>> readout_value("SEEDKEREHWERLNRDFELRVLDTTFIAHHAEEVIKLLRWEEK")
-0.48
>>> readout_value("SEEDKEREHWERLNRTFELRVLDTTFIAHHAEEVIKLLRWLEK")
2.31
>>> readout_value("SMEDKEREHWERLNRDFELRVLDTTFIAHHAEEVIKLLRWLEK")
1.43
>>> readout_value("SEEDKEREHWERLNRDFELRVLDTTFGAHHAEEVIKLLRWLEK")
0.669
>>> readout_value("MEEDKEREHWERLNRDFELRVLDTTFIAHHAEEVIKLLRWLEK")
0.916
>>> readout_value("SEEDKEREHWERLNRDFELRVLDTTNIAHHAEEVIKLLRWLEK")
0.663
>>> readout_value("SEEDKEREHWERLNRDFELRVLDLTFIAHHAEEVIKLLRWLEK")
2.19
>>> readout_value("SEEHKEREHWERLNRDFELRVLDTTFIAHHAEEVIKLLRWLEK")
1.41
>>> readout_value("SEEDKEREHWERLNRDFELRVLDTTFIAHHADEVIKLLRWLEK")
1.23
>>> readout_value("SEEDKERTHWERLNRDFELRVLDTTFIAHHAEEVIKLLRWLEK")
1.58
>>> readout_value("SEHDKEREHWERLNRDFELRVLDTTFIAHHAEEVIKLLRWLEK")
1.36
>>> readout_value("SEEDKERLHWERLNRDFELRVLDTTFIAHHAEEVIKLLRWLEK")
1.47
>>> readout_value("SEEDKEREHWERLNRDFELRVLDTTFIAHHAEEVIKLLRWHEK")
0.356
>>> readout_value("SEEDKERENWERLNRDFELRVLDTTFIAHHAEEVIKLLRWLEK")
1.23
>>> readout_value("SEEDKEREHWERLNRDFELRVLDTDFIAHHAEEVIKLLRWLEK")
1.2
>>> readout_value("SEEDKAREHWERLNRDFELRVLDTTFIAHHAEEVIKLLRWLEK")
1.49
>>> readout_value("SEEDKEREHWERLNRDFELRVLDTTFFAHHAEEVIKLLRWLEK")
1.58
>>> readout_value("SEEIKEREHWERLNRDFELRVLDTTFIAHHAEEVIKLLRWLEK")
1.4
>>> readout_value("SEEDKEREHWERLNRDFELRVLYTTFIAHHAEEVIKLLRWLEK")
2.92
>>> readout_value("SEEDKEREHWERLNRDFELRNLDTTFIAHHAEEVIKLLRWLEK")
1.23
>>> readout_value("SEEDKEREHWERLNLDFELRVLDTTFIAHHAEEVIKLLRWLEK")
2.07
>>> readout_value("SEEDKEREHWERLNRDFRLRVLDTTFIAHHAEEVIKLLRWLEK")
1.87
>>> readout_value("SEEDKEREHRERLNRDFELRVLDTTFIAHHAEEVIKLLRWLEK")
1.02
>>> readout_value("SEEDKEREHWERLNRDFELPVLDTTFIAHHAEEVIKLLRWLEK")
0.684
>>> readout_value("EEEDKEREHWERLNRDFELRVLDTTFIAHHAEEVIKLLRWLEK")
1.19
>>> readout_value("SEEDKEREHAERLNRDFELRVLDTTFIAHHAEEVIKLLRWLEK")
1.03
>>> readout_value("SEEDKEREHWERLNRDFELRVLDTTFIAHHAEEVIKLLRWLEQ")
1.36
>>> readout_value("SEEDKEREHWERLNRDFELRVLDTTFIAHHAEEVIKLLRWLEG")
1.82
>>> readout_value("SEEDKEREHWERLNRDFELRVLDTTFIAHHAEEVIKLGRWLEK")
-0.072
>>> readout_value("SEEDKEREHWERLNRDFELRVNDTTFIAHHAEEVIKLLRWLEK")
1.06
>>> readout_value("SEEDKEREHWGRLNRDFELRVLDTTFIAHHAEEVIKLLRWLEK")
1.76
>>> readout_value("SEEDKEMEHWERLNRDFELRVLDTTFIAHHAEEVIKLLRWLEK")
1.46
>>> readout_value("SEEDKEREHWERLNRDFELRVLDTTFIAWHAEEVIKLLRWLEK")
2.01
>>> readout_value("SEEDKEREHWERLNCDFELRVLDTTFIAHHAEEVIKLLRWLEK")
2.36
>>> readout_value("SEEDKEREHWERLNRDFELGVLDTTFIAHHAEEVIKLLRWLEK")
1.29
>>> readout_value("SEEDKEREHWERLNRDFELRVLDTTFIAHHAEEVIKLTRWLEK")
0.188
>>> readout_value("SEEDKEREHWERLNRDFELRVLDTTFIAHHAEEVSKLLRWLEK")
0.508
>>> readout_value("SEEDKEREHWERLNRDFELRVLDTTFIAHHAEEVVKLLRWLEK")
1.17
>>> readout_value("SEEDKEREHWERLNRDFELRVLDTTFIAHHAFEVIKLLRWLEK")
2.21
>>> readout_value("SEEDKEREHHERLNRDFELRVLDTTFIAHHAEEVIKLLRWLEK")
1.09
>>> readout_value("SEEDKEREHWERLNRDFELRVLDITFIAHHAEEVIKLLRWLEK")
2.24
>>> readout_value("SEEDKEREHWERLNRDNELRVLDTTFIAHHAEEVIKLLRWLEK")
0.718
